This collection of values is drawn from paper PMC4468608.

- System: cell lines from the Cancer Cell Line Encyclopedia (CCLE)
- assay-remarks: High-throughput cell viability assay, CCLE cell line panel (n = 356)
- Type: cell-based, human
- recorded-conditions: Homo sapiens, SH-10-TC, TP53 MUT
observed-property: IC50

Form: item `COc1cc2c(cc1OC(C)C)[C@H](c1ccc(Cl)cc1)N(c1ccc(N(C)C[C@H]3CC[C@H](N4CCNC(=O)C4)CC3)cc1)C(=O)C2` ; test system cell lines from the Cancer Cell Line Encyclopedia (CCLE); IC50: > 8 µM

====

- Test system: cell lines from the Cancer Cell Line Encyclopedia (CCLE)
- assay-remarks: High-throughput cell viability assay, CCLE cell line panel (n = 356)
- Format: cell-based, human
- recorded-conditions: Homo sapiens, HCT 116 TP53(-/-), HCT 116, TP53 WT
observed-property: IC50 (µM)
Supply the numeric figure in µM, leaving out any unit text.

Summary for this compound, `COc1cc2c(cc1OC(C)C)[C@H](c1ccc(Cl)cc1)N(c1ccc(N(C)C[C@H]3CC[C@H](N4CCNC(=O)C4)CC3)cc1)C(=O)C2` : IC50 is 3.38

====

- Test system: cell lines from the Cancer Cell Line Encyclopedia (CCLE)
- assay-remarks: High-throughput cell viability assay, CCLE cell line panel (n = 356)
- Format: cell-based, human
- recorded-conditions: Homo sapiens, KMS-11, KMS-11, TP53 WT
observed-property: IC50

Summary for this molecule, `COc1cc2c(cc1OC(C)C)[C@H](c1ccc(Cl)cc1)N(c1ccc(N(C)C[C@H]3CC[C@H](N4CCNC(=O)C4)CC3)cc1)C(=O)C2` : IC50 is > 8 µM

====

- Test system: cell lines from the Cancer Cell Line Encyclopedia (CCLE)
- assay-remarks: High-throughput cell viability assay, CCLE cell line panel (n = 356)
- Format: cell-based, human
- recorded-conditions: Homo sapiens, COLO-741, COLO 741, TP53 MUT
pIC50: −log10 of the molar value.
observed-property: pIC50

Summary for this compound, COc1cc2c(cc1OC(C)C)[C@H](c1ccc(Cl)cc1)N(c1ccc(N(C)C[C@H]3CC[C@H](N4CCNC(=O)C4)CC3)cc1)C(=O)C2 [NVP-CFC218] : pIC50 is < 5.10

====

- assay-remarks: PK parameters in preclinical species
- Format: in vivo
- recorded-conditions: in vivo, po; Mouse; 3 mg/kg p.o.; dose-normalized to 1 mg/kg; read-out: AUCinf p.o.
observed-property: AUC(0-inf) (µM·h)
Supply the numeric figure in µM·h, leaving out any unit text.

{"structure": "COc1cc2c(cc1OC(C)C)[C@H](c1ccc(Cl)cc1)N(c1ccc(N(C)C[C@H]3CC[C@H](N4CCNC(=O)C4)CC3)cc1)C(=O)C2", "observed-property": "AUC(0-inf)", "numeric-value": 1.2}

Now consider a different compound.
Summary for this compound, `COc1cc2c(cc1OC(C)C)[C@H](c1ccc(Cl)cc1)N(c1ccc(N(C)C[C@H]3CC[C@H](N4CCN(C)C(=O)C4)CC3)cc1)C(=O)C2` : AUC(0-inf) is 3.34

====

- Tested on: cell lines from the Cancer Cell Line Encyclopedia (CCLE)
- assay-remarks: High-throughput cell viability assay, CCLE cell line panel (n = 356)
- Format: cell-based, human
- recorded-conditions: Homo sapiens, SK-MEL-5, read-out: NVP- CFC218 IC50 (µM), cell line SK-MEL-5, skin, TP53 WT
observed-property: IC50

Form: item COc1cc2c(cc1OC(C)C)[C@H](c1ccc(Cl)cc1)N(c1ccc(N(C)C[C@H]3CC[C@H](N4CCNC(=O)C4)CC3)cc1)C(=O)C2 [NVP-CFC218] ; test system cell lines from the Cancer Cell Line Encyclopedia (CCLE); IC50: > 8 µM
